System: MDCK
Test: Apparent permeability from basolateral side to apical in verapamil pretreated MDCK cells expressing MDR1 at 10 uM after 60 mins by LC/MS analysis
Assay type: ADME, cell-based, Canis lupus familiaris
Settings: dog, 1 h
The threshold is 40%. Values of permeability beneath it are tagged true (1); values meeting or exceeding it are tagged false (0).

molecule	label-class
Cn1c(=O)c2c(ncn2C)n(C)c1=O [CAFFEINE]	false (0)
COC(=O)[C@@H]1C[C@H](OC(C)=O)C(=O)[C@H]2[C@@]1(C)CC[C@H]1C(=O)O[C@H](c3ccoc3)C[C@]21C [SALVINORIN A]	false (0)
COC(=O)[C@@H]1C[C@H](OC(C)=O)C(=O)[C@H]2[C@@]1(C)CC[C@H]1C(=O)O[C@H](CC3=CC(=O)C(OC)=CC3=O)C[C@]21C	true (1)
COc1cc2nc(N3CCN(C(=O)c4ccco4)CC3)nc(N)c2cc1OC [PRAZOSIN]	true (1)
COC(=O)[C@@H]1C[C@H](OC(C)=O)C(=O)[C@H]2[C@@]1(C)CC[C@H]1C(=O)O[C@H](CC3=CC(=O)C(OC)=C(OC)C3=O)C[C@]21C	false (0)

Reference source: ChEMBL document CHEMBL3351944
